# Protocol details: Cell viability assay (WST-8), HUDEP-2
# Format: cell-based, human
# Test settings: human, HUDEP-2 cells, 10 μM; control (0 μM) = 100
# Experimental: A WST-8 (2-(2-methoxy-4-nitrophenyl)-3-(4-nitrophenyl)-5-(2,4-disulfophenyl)-2H-tetrazolium) assay using a Cell Counting Kit-8 (DOJINDO) was performed to measure cell viability using an EnSpire microplate reader (PerkinElmer).
Reported property: viability at 10 μM (%)
Answers are plain numbers, in %.

See these solved cases before continuing.
Request the reported viability at 10 μM associated with COc1cc2c(NC3CCN(C(C)C)CC3)nc(C3CCCCC3)nc2cc1OCCCN1CCCC1 [UNC0638]
2.19

Which viability at 10 μM value belongs to COc1cc2c(NC3CCN(C(C)C)CC3)nc(N3CCC(F)(F)CC3)nc2cc1OCCCN1CCCC1 [UNC0642] ?
8.77

// switching to the query compound
Give its viability at 10 μM value. Item: Cc1c(C(=O)NC(CCC2CC2)C(=O)Nc2ccc(C#N)cc2)[nH]c2c1C(=O)CC(C)(C)C2 (stereo not drawn) [RK-701]
77.4
